# Test system: CDAHFD-fed C57BL/6 J mice
# experiment summary: CDAHFD mice (12 weeks): body weight and clinical signs
# Format: in vivo, mouse
# cond: CDAHFD+11c 5mpk, week 4, 5 mice
metric name: Body weight, Average (g)
Write the answer as a number in g, unit excluded.

// sample Cc1nc2n(c(=O)c1CCN1CCC(=C3c4ccc(Cl)cc4CCc4cccnc43)CC1)CCCC2O (stereo not shown) [Compound 11c] , its Body weight, Average was 20.3

====

# experiment summary: in vitro
# cond: rat, plasma
metric name: remaining at 4 h

// sample Cc1nc2n(c(=O)c1CCN1CCC(=C3c4ccc(Cl)cc4CCc4cccnc43)CC1)CCCC2O (stereo not shown) [Compound 11c] , its remaining at 4 h was > 99.9%

====

# experiment summary: Pharmacokinetic study in rats
# Format: in vivo, Sprague-Dawley rats
# cond: male, Sprague-Dawley, plasma, 10 mg/kg; rat, PO (10 mpk)
metric name: AUC (ng·h/mL)
Write the answer as a number in ng·h/mL, unit excluded.

// sample Cc1nc2n(c(=O)c1CCN1CCC(=C3c4ccc(Cl)cc4CCc4cccnc43)CC1)CCCC2O (stereo not shown) [Compound 11c] , its AUC was 2880

====

# experiment summary: Pharmacokinetic study in rats
# Format: in vivo, Sprague-Dawley rats
# cond: male, Sprague-Dawley, rat, plasma, po; rats (summary statement); read-out: oral bioavailability
metric name: bioavailability

// sample Cc1nc2n(c(=O)c1CCN1CCC(=C3c4ccc(Cl)cc4CCc4cccnc43)CC1)CCCC2O (stereo not shown) [Compound 11c] , its bioavailability was > 60%

====

# experiment summary: Hepatocyte stability test, human
# Format: in vitro ADME
# cond: both sexes, cryopreserved hepatocytes, pH 7.4, read-out: Hepatocyte stability (% remaining after 3 h)
metric name: remaining at 3 h, 10 μM (%)
Write the answer as a number in %, unit excluded.

// sample Cc1nc2n(c(=O)c1CCN1CCC(=C3c4ccc(Cl)cc4CCc4cccnc43)CC1)CCCC2O (stereo not shown) [Compound 11c] , its remaining at 3 h, 10 μM was 94

====

# experiment summary: Pharmacokinetic study in rats
# Type: in vivo, Sprague-Dawley rats
# cond: male, Sprague-Dawley, rat, plasma, iv, 5 mg/kg, IV (5 mpk)
# Procedure: The experimental protocol for this study was approved by the IACUC of KPC Co., Ltd. (No. KPC IACUC-P203046; Beagle dogs) or QuBEST BIO (No.QBIACUC-A20131). All relevant ethical guidelines were followed. Beagle male dogs (11 ~ 20 months old) were purchased from ORIENT BIO Inc. and were housed in the barrier animal facility of KPC Co., Ltd. under a regular light-dark cycle (12-hour light/12-hour dark) at 21.1–23.4°C with 55.3–72.2% humidity. […]
metric name: half-life (h)
Write the answer as a number in h, unit excluded.

// sample Cc1nc2n(c(=O)c1CCN1CCC(=C3c4ccc(Cl)cc4CCc4cccnc43)CC1)CCCC2O (stereo not shown) [Compound 11c] , its half-life was 4.14

====

# System: CDAHFD-fed C57BL/6 J mice
# experiment summary: CDAHFD mice (12 weeks): body weight and clinical signs
# Assay type: in vivo, mouse
# cond: CDAHFD+11c 5mpk, week 8, 5 mice
metric name: Body weight, Average (g)
Write the answer as a number in g, unit excluded.

// sample Cc1nc2n(c(=O)c1CCN1CCC(=C3c4ccc(Cl)cc4CCc4cccnc43)CC1)CCCC2O (stereo not shown) [Compound 11c] , its Body weight, Average was 21.6

====

# Test system: CDAHFD-fed C57BL/6 J mice
# experiment summary: CDAHFD mice (12 weeks): body weight and clinical signs
# Assay type: in vivo, mouse
# cond: CDAHFD+11c 5mpk, week 7, 5 mice
metric name: Body weight, Average (g)
Write the answer as a number in g, unit excluded.

// sample Cc1nc2n(c(=O)c1CCN1CCC(=C3c4ccc(Cl)cc4CCc4cccnc43)CC1)CCCC2O (stereo not shown) [Compound 11c] , its Body weight, Average was 21.4

====

# Tested on: CDAHFD-fed C57BL/6 J mice
# experiment summary: CDAHFD mice (12 weeks): body weight and clinical signs
# Type: in vivo, mouse
# cond: CDAHFD+11c 10mpk, week 5, 5 mice
# Excerpt: C57BL/6 J male mice were purchased from the Japan SLC. Inc (Hamamatsu, Japan). Mice (5 weeks old) were fed Teklad Certitied Irradiated Global 18% protein rodent diet purchased from Dooyeol Biotech Co. Ltd (Seoul, South Korea) during the acclimation period. The liver fibrosis/inflammation-induced groups were CDAHFD-fed (A06071302, Research diet). […] All animal experiments complied with the relevant ethical regulations.
metric name: Body weight, Average

// sample Cc1nc2n(c(=O)c1CCN1CCC(=C3c4ccc(Cl)cc4CCc4cccnc43)CC1)CCCC2O (stereo not shown) [Compound 11c] , its Body weight, Average was 20.9 g

====

# Test system: CDAHFD-fed C57BL/6 J mice
# experiment summary: CDAHFD mice (12 weeks): body weight and clinical signs
# Type: in vivo, mouse
# cond: CDAHFD+11c 5mpk, week 12, 5 mice
metric name: Body weight, Average (g)
Write the answer as a number in g, unit excluded.

// sample Cc1nc2n(c(=O)c1CCN1CCC(=C3c4ccc(Cl)cc4CCc4cccnc43)CC1)CCCC2O (stereo not shown) [Compound 11c] , its Body weight, Average was 22.5

====

# target system: 5HT2C (h) (Homo sapiens)
# Sequence (P28335 33-458): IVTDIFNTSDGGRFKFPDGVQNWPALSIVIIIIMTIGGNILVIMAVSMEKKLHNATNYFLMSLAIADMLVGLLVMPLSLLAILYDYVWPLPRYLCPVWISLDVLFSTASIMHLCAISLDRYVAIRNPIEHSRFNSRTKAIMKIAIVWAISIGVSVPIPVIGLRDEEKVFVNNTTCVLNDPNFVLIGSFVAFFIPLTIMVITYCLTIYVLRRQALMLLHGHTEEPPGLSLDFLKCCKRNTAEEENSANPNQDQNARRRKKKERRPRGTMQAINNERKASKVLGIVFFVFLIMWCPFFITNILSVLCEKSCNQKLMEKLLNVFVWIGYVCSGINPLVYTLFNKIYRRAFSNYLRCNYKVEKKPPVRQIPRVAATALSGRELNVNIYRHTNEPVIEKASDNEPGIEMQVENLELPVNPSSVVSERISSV
# experiment summary: 5HT subtype antagonism assay (Eurofins Cerep): 5HT2C
# cond: read-out: Selectivity 2 C: IC50
metric name: IC50 (nM)
Write the answer as a number in nM, unit excluded.

Noted IC50 for Cc1nc2n(c(=O)c1CCN1CCC(=C3c4ccc(Cl)cc4CCc4cccnc43)CC1)CCCC2O (stereo not shown) [Compound 11c] , tested on 5HT2C (h) (Homo sapiens): 170

====

# experiment summary: Pharmacokinetic study in rats
# Format: in vivo, Sprague-Dawley rats
# cond: male, Sprague-Dawley, plasma, 10 mg/kg; rat, PO (10 mpk); read-out: F (%)
metric name: bioavailability (%)
Write the answer as a number in %, unit excluded.

// sample Cc1nc2n(c(=O)c1CCN1CCC(=C3c4ccc(Cl)cc4CCc4cccnc43)CC1)CCCC2O (stereo not shown) [Compound 11c] , its bioavailability was 92.5

====

# experiment summary: in vitro
# cond: human
pIC50: −log10 of the molar value.
metric name: pIC50

// sample Cc1nc2n(c(=O)c1CCN1CCC(=C3c4ccc(Cl)cc4CCc4cccnc43)CC1)CCCC2O (stereo not shown) [Compound 11c] , its pIC50 was < 4.00

====

# target system: 5HT2A (Homo sapiens)
# Sequence (P28223 whole entry): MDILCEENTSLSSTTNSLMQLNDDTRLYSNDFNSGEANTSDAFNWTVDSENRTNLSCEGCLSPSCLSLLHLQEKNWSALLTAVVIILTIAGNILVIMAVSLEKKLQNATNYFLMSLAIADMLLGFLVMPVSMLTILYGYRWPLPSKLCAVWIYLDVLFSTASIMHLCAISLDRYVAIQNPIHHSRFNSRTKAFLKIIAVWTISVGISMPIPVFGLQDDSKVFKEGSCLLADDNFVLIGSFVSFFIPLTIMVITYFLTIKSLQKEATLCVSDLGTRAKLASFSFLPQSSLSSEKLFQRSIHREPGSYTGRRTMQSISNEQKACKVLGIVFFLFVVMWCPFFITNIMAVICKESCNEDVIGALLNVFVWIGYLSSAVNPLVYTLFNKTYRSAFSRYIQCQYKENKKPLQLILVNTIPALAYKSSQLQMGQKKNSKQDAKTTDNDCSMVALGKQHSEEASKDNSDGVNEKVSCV
# experiment summary: Human 5HT2A inhibition assay (FLIPR calcium 6, 5HT stimulus, stably transfected HEK293 cells)
Consider the following molecules; for each one, report its IC50.
Write the answer as a number in µM, unit excluded.

// sample Cc1nc2n(c(=O)c1CCN1CCC(=C3c4ccc(Cl)cc4CCc4cccnc43)CC1)CCC[C@H]2O (single isomer, unassigned) , its IC50 was 0.0111

// sample O=c1[nH]c2ccccc2c(=O)n1CCN1CCC(=C2c3ccc(Cl)cc3CCc3cccnc32)CC1 [Compound 11d] , its IC50 was 0.047

// sample Cc1nc2n(c(=O)c1CCN1CCC(=C3c4ccccc4CCc4cccnc43)CC1)CCCC2O (stereo not shown) [Compound 11e] , its IC50 was 0.061

// sample O=C1Cc2cc(C(O)CN3CCC(=C4c5ccc(Cl)cc5CCc5cccnc54)CC3)ccc2N1 (stereo not shown) , its IC50 was 0.0214

// sample OC(CN1CCC(=C2c3ccc(Cl)cc3CCc3cccnc32)CC1)c1ccc(Br)cc1 (stereo not shown) , its IC50 was 0.0319

// sample `O=C(CN1CCC(=C2c3ccc(Cl)cc3CCc3cccnc32)CC1)c1ccc(Br)cc1` , its IC50 was 0.0814

// sample Cc1nc2n(c(=O)c1CCN1CCC(=C3c4ccc(Cl)cc4CCc4cccnc43)CC1)CCC[C@@H]2O (single isomer, unassigned) , its IC50 was 0.0106

// sample O=C1Cc2cc(C(O)CN3CCC(=C4c5ccc(Cl)cc5CCc5cccnc54)CC3)c(Cl)cc2N1 (stereo not shown) , its IC50 was 0.0222

// sample `CN1CCC(=C2c3ccc(Cl)cc3CCc3cccnc32)CC1` , its IC50 was 0.119

// sample Cc1nc2n(c(=O)c1CCN1CCC(=C3c4ccc(Cl)cc4CCc4cccnc43)CC1)CCCC2 [Compound 11b] , its IC50 was 0.014

====

# System: CDAHFD-fed C57BL/6 J mice
# experiment summary: CDAHFD mice (12 weeks): body weight and clinical signs
# Type: in vivo, mouse
# cond: CDAHFD+11c 10mpk, week 0, 5 mice
metric name: Body weight, Average (g)
Write the answer as a number in g, unit excluded.

// sample Cc1nc2n(c(=O)c1CCN1CCC(=C3c4ccc(Cl)cc4CCc4cccnc43)CC1)CCCC2O (stereo not shown) [Compound 11c] , its Body weight, Average was 20.6

====

# System: CDAHFD-fed C57BL/6 J mice
# experiment summary: CDAHFD mice (12 weeks): body weight and clinical signs
# Assay type: in vivo, mouse
# cond: CDAHFD+11c 10mpk, week 8, 5 mice
metric name: Body weight, Average (g)
Write the answer as a number in g, unit excluded.

// sample Cc1nc2n(c(=O)c1CCN1CCC(=C3c4ccc(Cl)cc4CCc4cccnc43)CC1)CCCC2O (stereo not shown) [Compound 11c] , its Body weight, Average was 21.8
